The reported measurements were obtained from patent US20230272056A1.

- system.name: human LAP-TGFβ1 expressed on P3U1 cells (human, UniProt P01137 30-390)
- Sequence (P01137 30-390): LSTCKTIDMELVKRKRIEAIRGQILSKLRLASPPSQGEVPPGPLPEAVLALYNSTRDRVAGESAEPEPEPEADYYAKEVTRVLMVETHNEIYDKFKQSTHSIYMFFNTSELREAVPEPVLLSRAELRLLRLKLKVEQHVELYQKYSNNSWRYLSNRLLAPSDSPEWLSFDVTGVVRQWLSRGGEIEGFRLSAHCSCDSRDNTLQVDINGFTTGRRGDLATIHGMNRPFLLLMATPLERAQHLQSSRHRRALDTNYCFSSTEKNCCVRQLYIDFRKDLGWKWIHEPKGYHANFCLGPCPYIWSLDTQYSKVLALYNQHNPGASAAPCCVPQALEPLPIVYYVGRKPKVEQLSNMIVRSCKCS
- test.summary: cell-based or functional assay
observed.property: ELISA assay 2 EC50 (µg/mL)
Answer in µg/mL, number only, no unit symbol.

State the recorded ELISA assay 2 EC50 for this entry: 08BLM (antibody, human IgG1, kappa, L234A L235A, V domains shown) VH: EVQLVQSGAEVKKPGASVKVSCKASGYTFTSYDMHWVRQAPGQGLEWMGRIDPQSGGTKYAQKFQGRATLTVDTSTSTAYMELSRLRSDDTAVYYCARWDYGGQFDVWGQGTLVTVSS VL: DIQMTQSPSSLSASVGDRVTITCRASQDIYNYLNWYQQKPGKAVKLLIYYTSGLETGVPSRFSGSGSGTDYTLTISSLQPEDFATYFCQQGDTLPWTFGQGTKLEIKR
0.098

State the recorded ELISA assay 2 EC50 for this entry: 13BLM (antibody, human IgG1, kappa, L234A L235A, V domains shown) VH: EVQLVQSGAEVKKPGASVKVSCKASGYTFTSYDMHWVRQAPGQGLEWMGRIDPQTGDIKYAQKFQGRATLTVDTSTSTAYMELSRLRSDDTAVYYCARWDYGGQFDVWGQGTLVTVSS VL: DIQMTQSPSSLSASVGDRVTITCRASQDIYNYLNWYQQKPGKAVKLLIYYTSGLETGVPSRFSGSGSGTDYTLTISSLQPEDFATYFCQQGDTLPWTFGQGTKLEIKR
0.105

State the recorded ELISA assay 2 EC50 for this entry: 10BLM (antibody, human IgG1, kappa, L234A L235A, V domains shown) VH: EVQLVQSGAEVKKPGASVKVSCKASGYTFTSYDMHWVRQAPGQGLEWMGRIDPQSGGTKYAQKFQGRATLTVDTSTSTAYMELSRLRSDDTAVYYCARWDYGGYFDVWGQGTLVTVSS VL: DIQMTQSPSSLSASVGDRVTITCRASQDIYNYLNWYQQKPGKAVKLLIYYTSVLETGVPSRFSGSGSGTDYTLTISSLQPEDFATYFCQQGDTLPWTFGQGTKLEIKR
0.134
